pEC50 listing for selected compounds.
- System: mouse organoids from normal pancreata (mN)
- experimental protocol: Organoid cytotoxicity assay
- Format: cell-based
- stated conditions: 72 h, read-out: EC50 mN
# log scale: pEC50 equals minus log10 of the concentration in mol/L

- compound: "NC1(c2ccc(-c3nc4ccn5c(=O)[nH]nc5c4cc3-c3ccccc3)cc2)CCC1 [AKTi, MK2206]"
  readout: "pEC50"
  endpoint result: 6.85

Please examine the following record next.
# pEC50 of Cn1cnc2c(F)c(Nc3ccc(Br)cc3Cl)c(C(=O)NOCCO)cc21 [MEKi, selumetinib] = 5.70
